system: OVCAR-8; assay: NCI tumour cell line growth inhibition, 48 h
Active and inactive are the calls of the source. No stated cut-off is given here; in the data, active = GI50 up to about 1.1 µM and inactive = higher.
Hi! Could you answer with just one of these? 1 (active), -1 (inactive)

• COc1ccc(CC(COS(=O)(=O)c2ccc(C)cc2)NS(=O)(=O)c2ccc(C)cc2)cc1 (stereo not given) = -1
• CCCCCCC(=O)C/C(=N/NC(N)=S)C(=O)NC1C2CC3CC(C2)CC1C3 (stereo not given) = -1
• COC(=O)C(N)CCCC(N)C(=O)NC(C)C(=O)NC(CCC(=O)NCCCNc1ccc([N+](=O)[O-])c2[nH]c3ccccc3c(=O)c12)C(N)=O (stereo not given) = -1
• CN1C(=O)C2C=CC1C1CCC2N(C)C1=O (stereo not given) = -1

Here's the next entry for you.
query: Please state the recorded outcome for this molecule: "O=C(O)c1cc(N(Cc2ccccc2O)Cc2cc(O)ccc2O)ccc1O"
result: -1

====

tested on: 786-0; test: NCI tumour cell line growth inhibition, 48 h
Calls of active or inactive are those of the source. Cut-off read from the data, not from the text of the source: active = GI50 up to about 1.1 µM and inactive = higher.
GI50: recorded values

query: Notebook: pull reported GI50 for 786-0, entry "O=C(O/N=C1/CCC/C1=C\c1ccccc1)c1ccc(Cl)cc1"
result: 51.8 µM (inactive)

query: Notebook: pull reported GI50 for 786-0, entry O=c1[nH]c(=O)n(C2OC(CO)C(O)C2O)cc1OCCc1ccccc1 (centres undefined)
result: > 100 µM (inactive)

query: Notebook: pull reported GI50 for 786-0, entry COC(=O)C1Cc2c(n(C)c3ccccc23)C(CCC(=O)O)N1Cc1ccccc1 (centres undefined)
result: > 100 µM (inactive)

query: Notebook: pull reported GI50 for 786-0, entry O=C(NN1C(=O)C(Cl)C1c1c(O)ccc2ccccc12)c1ccccc1O (centres undefined)
result: > 100 µM (inactive)

====

tested on: Hs-578T; test: NCI tumour cell line growth inhibition, 48 h
Activity calls are given as the source filed them. No stated cut-off is given here; in the data, active = GI50 up to about 1.1 µM and inactive = higher.
Hi! Could you answer with just one of these? active, inactive

- O=C1C(/C=C/c2ccc(Cl)cc2)=NNC2N1N=C1NC(=O)C3(NN12)c1ccccc1-c1ccccc13 (stereo not drawn): inactive
- CN1CCN([C@H]2C[C@H]3[C@@H]4CC=C5C[C@@H](O)CC[C@]5(C)[C@H]4CC[C@]3(C)C2=O)CC1: inactive
- C=CCOC(=O)CC[C@H](NC(=O)[C@@H](CCC(F)(F)F)Cc1ccc(O)cc1)C(=O)OCC=C: inactive
- O=C(O)CCc1nc(-c2ccccc2-n2cccc2)no1: inactive
- O=c1oc2ccccc2c(O)c1C1c2c(c3ccccc3oc2=O)Oc2c1c(=O)oc1ccccc21: inactive
- CCCCc1ccc(-n2sc3ncc([N+](=O)[O-])cc3c2=O)cc1: inactive
- CCCOC(=O)C1C2CCC(O2)C1C(=O)O (stereo not drawn): inactive
- CS(=O)(=O)c1nc(Cl)c(Cl)c(C#N)c1Cl: inactive

query: Please state the recorded outcome for this compound: COC(=O)[C@H](Cc1ccccc1)NC(=O)[C@H](Cc1ccccc1)NC(=O)[C@@H]1CCCN1C(=O)N[C@H]1C2C=CC(C2)C1C(=O)N1CCC[C@H]1C(=O)N[C@@H](C)C(=O)N[C@H](C(=O)OC)C(C)C (stereo partly drawn)
result: inactive

query: Please state the recorded outcome for this compound: O=C1NCC(CSc2nc3cc(C4CCCc5c4[nH]c4ccccc54)ccc3o2)N1 (stereo not drawn)
result: inactive
